- Tested on: HCT-116
- test_method_notes: NCI tumour cell line growth inhibition, 48 h
The source made the active and inactive calls. Rule as the data show it: active = GI50 up to about 1.1 µM and inactive = higher.
Record form. Attribute: GI50. Fill in for each entry.

Request: Specify measured GI50 for `Cc1cc(C)c2c(c1)CN1CN2Cc2cc(C)cc(C)c21` .
Result: 19.4 µM (inactive)

Request: For CC(=O)OC12CC[N+]3(C)CCCCC3C1=Nc1ccccc12 (stereo unspecified) , write its GI50.
Result: > 100 µM (inactive)

Request: State its GI50: CC(C)(C)c1ccc(O)c(C(O)c2ccncc2)c1 (stereo unspecified)
Result: > 100 µM (inactive)

Request: Answer with the recorded GI50 for the molecule listed here: Cc1ccc(C2(C)CC/C(=N/N=C3/CCC(C)(c4ccc(C)c(C)c4)c4cc(C)c(C)cc43)c3cc(C)c(C)cc32)cc1C (stereo unspecified)
Result: > 100 µM (inactive)

Request: State, in one line, measured GI50 of `CN(C)CCNC(=O)c1cccc2ccc(-c3ccc(Br)cc3)nc12`
Result: 1.23 µM (inactive)

Request: Using known records, supply GI50 for `O=C1Cc2ccccc2N1/N=C\c1ccc([N+](=O)[O-])cc1`
Result: > 100 µM (inactive)

Request: Consider the molecule `N#Cc1c(-c2ccc(Cl)cc2)cc(-c2nc3ccccc3[nH]2)nc1N` and give its recorded GI50.
Result: 10.3 µM (inactive)

Request: Quick one: give measured GI50 for `Cc1nc2ccccc2c(=O)n1/N=C/c1ccc(N(C)C)cc1`
Result: > 100 µM (inactive)

Request: Consider the molecule `O=C(CCC(=O)Nc1cccc(Cl)c1)CC(=O)c1ccc(F)cc1` and give its recorded GI50.
Result: > 100 µM (inactive)

Request: Answer with the recorded GI50 for the molecule listed here: `COc1cc(/C=C2/C(=O)N(C(=O)c3ccc(Cl)cc3)N=C2C)cc(OC)c1OC`
Result: > 100 µM (inactive)

Request: For the molecule `Cn1c(=O)n(C2(C)C[Se]C2)c2ccccc21` , report GI50.
Result: > 100 µM (inactive)

====

- System: Hs-578T
- test_method_notes: NCI tumour cell line growth inhibition, 48 h
Calls of active or inactive are those of the source. No stated cut-off is given here; in the data, active = GI50 up to about 1.1 µM and inactive = higher. Starred links: 1 amine or outer side, 2 acyl side, 3 side chain; linkers in the order of their positions; H or OH if unused. Positions of bridges follow the written chain, without caps; N, C: chain ends. Non-standard residues stand in square brackets, D forms with d. Residues, ends and D or L forms follow the SMILES beside them. Chains are numbered I, II in the order given. Actinocin(9to1) = Cc1c2oc3c(C)ccc(C(=O)[*:1])c3nc-2c(C(=O)[*:2])c(N)c1=O; NMeV = CN[CH](C(=O)O)C(C)C; Sar = CNCC(=O)O
Log the outcome using a class from class 1 for active, class 0 for inactive

Request: Tell me the assay call for CCOC(=O)C1C(=O)CC(O)(c2ccccc2)C(C(=O)OCC)C1c1ccc(N(C)C)cc1 (centres undefined) please.
Result: class 0

Request: Assay result, entry `C/C(=N\NC(=O)c1ccncc1)c1ccccc1Cl` — outcome?
Result: class 0

Request: Per the records of this test, what outcome belongs to `CCOC(=O)c1cnc(-n2[nH]c3c(c2=O)CCCC3)[nH]c1=O` ?
Result: class 0

Request: Recorded test call requested for NC(=O)c1ccc(N)nc1 [6-AMINONICOTINAMIDE]
Result: class 0

Request: Test call for this molecule, please: `Nc1ccc2c(=O)cc(-c3cccs3)[nH]c2n1`
Result: class 0

Request: # fetch the recorded call for NC12Oc3cc(O)cc(O)c3C1(c1ccc(Cl)cc1)c1c(O)cc(O)cc1O2 (centres undefined) here
Result: class 0

Request: Recorded test outcome, item COC(O)C(=O)c1c2c(cc3c1CCC3)CCCC2 (centres undefined)
Result: class 0

Request: Please indicate how the test categorized `O=c1[nH]c(NCc2cccnc2)nc2[nH]cnc12` .
Result: class 0

Request: Call for entry `CN(/N=C/c1ccccc1C(=O)O)C1=NCCCCN1` :
Result: class 0

Request: Hi, sorry to bother you, what did the test record for `CN(C)CCCN1c2ccccc2CCc2cc([N+](=O)[O-])ccc21` ?
Result: class 0

Request: Please let me know the test result on file for COc1cc2c(cc1O)C1Cc3ccc(OC)c(O)c3C(C2)N1C (centres undefined) .
Result: class 0

Request: How did this test come out for CC(C)(C)c1ccc(O)c(C(O)c2ccncc2)c1 (centres undefined) ?
Result: class 0

Request: Given `Cn1c(=S)c2nc(SCCCc3ccccc3)[nH]c2n(C)c1=O` , state the outcome it received in this test.
Result: class 0

Request: In this assay, the call recorded for O=C1C=CN(C2OC(CO)C(O)C2O)C(=O)C1 (centres undefined) was what?
Result: class 0

Request: Query: recorded result category for `COc1ccc(C(=O)/C=C/c2ccc(OCCSCCCCCCCCCCSCCOc3ccc(/C=C/C(=O)c4ccc(OC)c(OC)c4)cc3)cc2)cc1OC` in this test
Result: class 0

Request: What call does the record list for `CC(=O)OC(C)(C)/C=C/C(=O)[C@](C)(O)[C@H]1[C@H](O)C[C@@]2(C)[C@@H]3CC=C4[C@@H](C=C(O)C(=O)C4(C)C)[C@]3(C)C(=O)C[C@]12C` ?
Result: class 1

Request: Kindly provide the recorded test outcome for the following molecule: Cc1cc(C)n(C(=O)C(C)Sc2nnc(SC(C)C(=O)n3nc(C)cc3C)s2)n1 (centres undefined)
Result: class 0

Request: What did the test return for O=C1CCC(NC(=O)c2ccccc2)C(=O)N1 (centres undefined) ?
Result: class 0

Request: Name the outcome recorded for CCCCC[C@H]1CCCCCCCCCC(=O)OC2C(O[C@@H]3OC(C)[C@H](OC(=O)[C@@H](C)CC)C(O[C@@H]4OC(C)[C@H](O)C(O)[C@@H]4O)[C@@H]3OC(=O)[C@H](C)CC)[C@H](OC3C(O)[C@@H](O)C(C)O[C@H]3O1)OC(CO)[C@H]2O (some centres undefined) in the assay.
Result: class 0

Request: How did this test come out for COc1cc2c(cc1OCCCC(=O)Nc1cc(C(=O)Nc3cc(C(=O)Nc4cc(C(=O)NCCCN(C)C)n(C)n4)n(C)c3)n(C)c1)N=CC1CCCN1C2=O (centres undefined) ?
Result: class 0

Request: // outcome(item) with item = CC(C)C(C/C=C1\CC(CO)(COC(=O)c2ccccc2)OC1=O)C(C)C (centres undefined)
Result: class 0

Request: Dear all, I need the recorded test outcome for `C[C@@H]1C[C@H](O)[C@]2(O)O[C@@H]3C[C@@]4(C=O)[C@@H](CC[C@@H]5[C@@H]4CC[C@]4(C)[C@@H](C6=CC(=O)OC6)CC[C@]54O)C[C@H]3O[C@@H]2O1` , thank you.
Result: class 1

Request: Recorded test outcome, item C=C1C[C@H](O)[C@H]2C(C[Se]c3ccccc3)C(=O)O[C@@H]2[C@H]2[C@H](C)C(O)C[C@@H]12 (some centres undefined)
Result: class 0

Request: Hey, what did the test say about Cc1cc(C)c2c(c1)CC1(Cc3ccc(C)c(C)c3C1=O)C2=O (centres undefined) ?
Result: class 0

Request: // param item: O=P(O)(NCCCl)NCCCl [PALIFOSFAMIDE] ; yields the recorded call
Result: class 0

Request: Dear all, I need the recorded test outcome for CCOC(=O)C1C(=O)C=C(c2cc(C)ccc2O)CC1c1cccc(Cl)c1 (centres undefined) , thank you.
Result: class 0

Request: Each molecule tested received a call. Report the one for Cc1c2oc3c(C)ccc(C(=O)NC4C(=O)NC(Cc5ccc(O)cc5)C(=O)N5CCCC5C(=O)N(C)CC(=O)N(C)C(C(C)C)C(=O)OC4C)c3nc-2c(C(=O)NC2C(=O)NC(Cc3ccc(O)cc3)C(=O)N3CCCC3C(=O)N(C)CC(=O)N(C)C(C(C)C)C(=O)OC2C)c(N)c1=O (centres undefined) (I: TYP[Sar][NMeV] / II: TYP[Sar][NMeV]; ester I:1-I:C, II:1-II:C; linker I:N-II:N via Actinocin(9to1); configuration not given here) .
Result: class 0

Request: I would be grateful if you could indicate the recorded call for `CCOc1cc2c(=O)oc3c(OC)ccc4ccc(c1OC)c2c43` .
Result: class 0

Request: GET /call?item= `CCSC1=N/C(=C/c2ccccc2O)C(=O)N1` returns the recorded outcome of this test.
Result: class 0

Request: How did this test come out for `COc1ccc(Nc2nc(N)c(C(=O)c3cccs3)s2)cc1` ?
Result: class 0

Request: Hey, what did the test say about `CCOc1ccccc1-c1nc2c(s1)C(=O)c1ccccc1C2=O` ?
Result: class 0

Request: What did the test return for `Cc1cc(NN)nc2[nH]nc(N)c12` ?
Result: class 0

Request: Assay outcome for COC(=O)C1C(C(=O)OC)N(Cc2ccccc2)C(=O)N1Cc1ccccc1 (centres undefined) : what was it?
Result: class 0

Request: Outcome logged for `C=CCOc1ccc(C(=N/NC(=O)c2ccccc2)/N=N/c2ccc(C)cc2)cc1OC` in this assay:
Result: class 0
